The origin of these recorded values is the supplement of paper PMC10567573.

B1: GLTSCR2 (parent)
chain: LARRRRRRQARREAEADKPRRLGR

# Variants of: B1
# TEST_METHOD_NOTES: protein stability index of a GFP-peptide fusion (GPS, HEK-293T) (PSI 1-6); higher = more stable;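 also: lentivirally expressed fusions sorted by FACS into six bins by GFP to DsRed ratio, PSI derived from sequencing read proportions per bin multiplied by bin number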
# STATED_CONDITIONS: c terminus: a fixed tail appended
Recorded protein stability index by entry

| SEQUENCE_VARIANT | protein stability index |
| --- | --- |
| E13W | 4.51 |
| L1W | 4.58 |
| R6V | 3.6 |
| R21W | 3.64 |
| D17I | 3.98 |
| R4G | 4.3 |
| L22Q | 4.87 |
| L1Y | 4.28 |
| R24I | 4.47 |
| R8E | 4.83 |
| Q9A | 4.17 |
| R11I | 4.8 |
| K18F | 5.1 |
| R8T | 4.21 |
| A14W | 4.45 |
| R24D | 5.02 |
| L22V | 5.4 |
| R7Q | 4.19 |
| Q9G | 4.46 |
| R6W | 4.74 |
| A16W | 3.73 |
| R24L | 4.58 |
